- target_of_assay: UniProt P56817
- protocol_details: Inhibition of BACE1 (unknown origin) after 90 mins by fluorescence assay
- assay_context: read-out: IC50
Numbered stars: 1 amine (or outer) side, 2 acyl side, 3 side chain; on linkers, the order of the positions; unused ones are H or OH. Square brackets hold non-standard residues; d marks the D form. Peptide text beside a SMILES is read from it. * marks the point of attachment. Ahppa(3S,4S) = O=C(C[C@H](O)[C@H](Cc1ccccc1)N[*:1])[*:2]; NMeQ = CN[C@@H](CCC(N)=O)C(=O)O; Cbz = O=C(OCc1ccccc1)*
Answer each item with its documented pIC50.
One number for each entry, as −log10 of the molar value.

Would you please look over these solved cases?
compound=COC(=O)[C@@H](Cc1ccccc1)N(C)C(=O)[C@H](C)NC(=O)[C@H](CC(C)C)NC(=O)C[C@H](O)[C@H](Cc1ccccc1)NC(=O)[C@H](CCC(N)=O)N(C)C(=O)[C@@H](NC(=O)OCc1ccccc1)C(C)C reported_metric=pIC50 reported_value=6.06
compound="COC(=O)[C@H](C)NC(=O)[C@H](CC(C)C)NC(=O)C[C@H](O)[C@H](Cc1ccccc1)NC(=O)[C@H](CCC(N)=O)N(C)C(=O)[C@@H](NC(=O)OCc1ccccc1)C(C)C (Cbz-V[NMeQ][Ahppa(3S,4S)]LA-OMe)" reported_metric=pIC50 reported_value=5.58
compound=CCCN(CCC)C(=O)c1cccc(C(=O)N[C@@H](Cc2ccccc2)[C@@H](O)CC(=O)N[C@@H](CC(C)C)C(=O)N[C@@H](C)C(=O)N(C)[C@H](Cc2ccccc2)C(=O)O)c1 reported_metric=pIC50 reported_value=6.32

Shift focus to the following entry.
Specify reported pIC50 for the compound shown: COC(=O)[C@H](CC(C)C)NC(=O)C[C@H](O)[C@H](Cc1ccccc1)NC(=O)[C@H](CCC(N)=O)N(C)C(=O)[C@@H](NC(=O)OCc1ccccc1)C(C)C 5.35

---

- target_of_assay: Beta-secretase 1 (Homo sapiens, UniProt P56817)
- Sequence (P56817 whole entry): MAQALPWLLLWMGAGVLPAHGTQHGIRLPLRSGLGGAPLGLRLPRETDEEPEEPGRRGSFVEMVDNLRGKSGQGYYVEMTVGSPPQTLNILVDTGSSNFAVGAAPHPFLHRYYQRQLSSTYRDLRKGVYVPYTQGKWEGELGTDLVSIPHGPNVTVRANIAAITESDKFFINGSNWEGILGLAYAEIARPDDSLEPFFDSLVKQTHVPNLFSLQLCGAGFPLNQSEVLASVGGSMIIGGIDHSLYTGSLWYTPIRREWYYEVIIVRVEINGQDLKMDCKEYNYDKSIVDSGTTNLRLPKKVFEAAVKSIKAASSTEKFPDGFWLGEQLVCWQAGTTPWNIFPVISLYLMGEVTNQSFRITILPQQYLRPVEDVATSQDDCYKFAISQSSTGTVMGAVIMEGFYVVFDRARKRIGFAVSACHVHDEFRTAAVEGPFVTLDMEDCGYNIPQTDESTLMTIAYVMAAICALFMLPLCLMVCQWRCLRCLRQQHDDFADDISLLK
- protocol_details: Inhibition of BACE1 (unknown origin) at 10 uM after 90 mins by fluorescence assay
reported_metric: inhibition

smiles_record=CCCN(CCC)C(=O)c1cccc(C(=O)N[C@@H](Cc2ccccc2)[C@@H](O)CC(=O)N[C@@H](CC(C)C)C(=O)N[C@@H](C)C(=O)N(C)[C@H](Cc2ccccc2)C(=O)OCc2ccccc2)c1 reported_metric=inhibition reported_value=89.4%
smiles_record=CC(C)C[C@H](NC(=O)C[C@H](O)[C@H](Cc1ccccc1)NC(=O)c1cccc(C(=O)N2CCCC2=O)c1)C(=O)N[C@@H](C)C(=O)N(C)[C@H](Cc1ccccc1)C(=O)OCc1ccccc1 reported_metric=inhibition reported_value=28.4%

I would be grateful if you could provide inhibition for each of the following entries.
1. CCCN(CCC)C(=O)c1cccc(C(=O)N[C@@H](Cc2ccccc2)[C@@H](O)CC(=O)N[C@@H](CC(C)C)C(=O)N[C@@H](C)C(=O)N(C)[C@H](Cc2ccccc2)C(=O)O)c1
2. COC(=O)[C@@H](Cc1ccccc1)N(C)C(=O)[C@H](C)NC(=O)[C@H](CC(C)C)NC(=O)C[C@H](O)[C@H](Cc1ccccc1)NC(=O)[C@H](CCC(N)=O)N(C)C(=O)[C@@H](NC(=O)OCc1ccccc1)C(C)C

1. 97.2%
2. 97%

I would be grateful if you could provide inhibition for each of the following entries.
1. COC(=O)C[C@H](O)[C@H](Cc1ccccc1)NC(=O)[C@H](CCC(N)=O)N(C)C(=O)[C@@H](NC(=O)OCc1ccccc1)C(C)C
2. COC(=O)[C@H](CC(C)C)NC(=O)C[C@H](O)[C@H](Cc1ccccc1)NC(=O)OC(C)(C)C
3. CCCN(CCC)C(=O)c1cccc(C(=O)N[C@@H](Cc2ccccc2)[C@@H](O)CC(=O)N[C@@H](CC(C)C)C(=O)N[C@@H](C)C(=O)N(C)[C@H](Cc2ccccc2)C(=O)O)n1

22.1%
25.8%
35%
